# Tested on: MCF7
# experiment_notes: Antiproliferative activity against human MCF7 cells assessed as cell viability incubated for 72 hrs by MTT assay
# Type: functional, cell-based
# study_conditions: MCF7, 72 h
endpoint: pIC50
Give bare numbers, as −log10 of the molar value.

COc1ccc(/C=C/c2nc(N(C)c3ccc(OC)cc3)c3ccccc3n2)cc1; 5.44

Hello, I would appreciate it if you could give pIC50 for each entry below.
1. COc1ccc(N(C)c2nc(/C=C/c3ccc(Cl)cc3)nc3ccccc23)cc1
2. COc1ccc(N(C)c2nc(/C=C/c3ccc(OC)c(OC)c3OC)nc3ccccc23)cc1
3. COc1ccc(N(C)c2nc(/C=C/c3ccccc3)nc3ccccc23)cc1

1. 6.21
2. 6.39
3. 6.64

Hello, I would appreciate it if you could give pIC50 for each entry below.
1. COc1ccc(N(C)c2nc(/C=C/c3cccc([N+](=O)[O-])c3)nc3ccccc23)cc1
2. COc1ccc(N(C)c2nc(/C=C/c3cccc(OC)c3)nc3ccc(F)cc23)cc1
3. CN(c1ccc2c(c1)OCCO2)c1nc(/C=C/c2ccccc2)nc2ccccc12

5.83
6.10
6.49

Summary for this molecule, `COc1ccc(N(C)c2nc(/C=C/c3ccc(OC)cc3OC)nc3ccccc23)cc1` : pIC50 is 6.85
